targetOrSystem: T1, M5-1
T1 construct: also called PD1 mutant M5-1
assayMethodText: scFv-phage ELISA
Criterion: OD490 meeting or surpassing 2. Met: met. Not met: not met.

binder	labelClass
PD1-42G4 (antibody, V domains shown, scFv-phage in the screening ELISA; later whole IgG) VH: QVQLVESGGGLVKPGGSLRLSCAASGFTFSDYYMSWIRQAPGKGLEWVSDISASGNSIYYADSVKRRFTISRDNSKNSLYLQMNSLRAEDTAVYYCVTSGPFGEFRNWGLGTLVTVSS VL: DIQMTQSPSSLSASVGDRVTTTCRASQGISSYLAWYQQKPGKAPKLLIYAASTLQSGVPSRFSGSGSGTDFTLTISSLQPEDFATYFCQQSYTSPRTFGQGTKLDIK	not met
PD1-49B9 (antibody, V domains shown, scFv-phage in the screening ELISA; later whole IgG) VH: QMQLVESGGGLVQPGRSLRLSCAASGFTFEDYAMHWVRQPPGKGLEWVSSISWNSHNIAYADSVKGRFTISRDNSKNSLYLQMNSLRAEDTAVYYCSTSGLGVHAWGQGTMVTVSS VL: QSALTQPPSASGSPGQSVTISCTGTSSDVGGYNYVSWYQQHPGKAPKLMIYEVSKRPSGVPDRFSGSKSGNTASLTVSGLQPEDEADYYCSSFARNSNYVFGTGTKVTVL	met
PD1-44B5 (antibody, V domains shown, scFv-phage in the screening ELISA; later whole IgG) VH: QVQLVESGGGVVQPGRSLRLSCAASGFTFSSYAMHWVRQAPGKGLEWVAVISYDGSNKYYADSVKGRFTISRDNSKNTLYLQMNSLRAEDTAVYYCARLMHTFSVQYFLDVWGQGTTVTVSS VL: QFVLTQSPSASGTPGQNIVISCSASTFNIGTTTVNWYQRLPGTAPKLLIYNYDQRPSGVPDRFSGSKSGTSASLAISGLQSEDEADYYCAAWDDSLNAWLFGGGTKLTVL	met
PD1-45F4 (antibody, V domains shown, scFv-phage in the screening ELISA; later whole IgG) VH: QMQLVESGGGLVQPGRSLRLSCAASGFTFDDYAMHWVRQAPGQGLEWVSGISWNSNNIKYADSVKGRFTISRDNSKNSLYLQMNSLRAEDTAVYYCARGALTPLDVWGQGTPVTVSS VL: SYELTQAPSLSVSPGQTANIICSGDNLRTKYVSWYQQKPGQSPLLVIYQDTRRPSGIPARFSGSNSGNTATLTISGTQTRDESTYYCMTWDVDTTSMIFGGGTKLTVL	not met
PD1-48A9 (antibody, V domains shown, scFv-phage in the screening ELISA; whole IgG in the other assays) VH: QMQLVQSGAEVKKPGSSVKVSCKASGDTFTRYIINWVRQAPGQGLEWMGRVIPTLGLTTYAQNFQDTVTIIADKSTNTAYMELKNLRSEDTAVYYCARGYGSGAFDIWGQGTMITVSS VL: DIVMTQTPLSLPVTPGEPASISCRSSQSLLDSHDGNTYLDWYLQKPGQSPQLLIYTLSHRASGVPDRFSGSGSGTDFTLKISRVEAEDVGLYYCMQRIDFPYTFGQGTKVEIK	not met

Just for reference, patent US20190248900A1 is where these values come from.
